System: Kummerowia striata
Assay: Weed spectrum, greenhouse pot test
Assay type: in vivo
Settings: Pre-emergence, 100 g ai/ha, two weeks after application
Assignment: determine reported efficacy (0-100 scale) for the given molecules.
Answers are plain numbers.

CCOC(=O)c1cnn(C)c1S(=O)(=O)NC(=O)Nc1nc(OC)cc(OC)n1 [Control chemical No. 1, Pyrazosulfuron ethyl, reference compound]: 70
COc1cc(OC)nc(NC(=O)NS(=O)(=O)c2ncccc2C(F)(F)F)n1 [Control chemical No. 2, Flazasulfuron, reference compound]: 100

Field: efficacy (0-100 scale). Fill in for each record below.
1. Cc1cc(C)nc(NC(=O)NS(=O)(=O)c2ccccc2C(O)C(C)F)n1 (stereo not shown)
2. COc1nc(C)nc(NC(=O)NS(=O)(=O)c2cscc2C2(CF)OCCO2)n1

Response line:
100
100
